molecular target: Sodium channel protein type 3 subunit alpha (Homo sapiens); experiment: Inhibition of human NaV1.3 expressed in HEK cells by electrophysiological method; format: cell-based
Sequence (Q9NY46 whole entry): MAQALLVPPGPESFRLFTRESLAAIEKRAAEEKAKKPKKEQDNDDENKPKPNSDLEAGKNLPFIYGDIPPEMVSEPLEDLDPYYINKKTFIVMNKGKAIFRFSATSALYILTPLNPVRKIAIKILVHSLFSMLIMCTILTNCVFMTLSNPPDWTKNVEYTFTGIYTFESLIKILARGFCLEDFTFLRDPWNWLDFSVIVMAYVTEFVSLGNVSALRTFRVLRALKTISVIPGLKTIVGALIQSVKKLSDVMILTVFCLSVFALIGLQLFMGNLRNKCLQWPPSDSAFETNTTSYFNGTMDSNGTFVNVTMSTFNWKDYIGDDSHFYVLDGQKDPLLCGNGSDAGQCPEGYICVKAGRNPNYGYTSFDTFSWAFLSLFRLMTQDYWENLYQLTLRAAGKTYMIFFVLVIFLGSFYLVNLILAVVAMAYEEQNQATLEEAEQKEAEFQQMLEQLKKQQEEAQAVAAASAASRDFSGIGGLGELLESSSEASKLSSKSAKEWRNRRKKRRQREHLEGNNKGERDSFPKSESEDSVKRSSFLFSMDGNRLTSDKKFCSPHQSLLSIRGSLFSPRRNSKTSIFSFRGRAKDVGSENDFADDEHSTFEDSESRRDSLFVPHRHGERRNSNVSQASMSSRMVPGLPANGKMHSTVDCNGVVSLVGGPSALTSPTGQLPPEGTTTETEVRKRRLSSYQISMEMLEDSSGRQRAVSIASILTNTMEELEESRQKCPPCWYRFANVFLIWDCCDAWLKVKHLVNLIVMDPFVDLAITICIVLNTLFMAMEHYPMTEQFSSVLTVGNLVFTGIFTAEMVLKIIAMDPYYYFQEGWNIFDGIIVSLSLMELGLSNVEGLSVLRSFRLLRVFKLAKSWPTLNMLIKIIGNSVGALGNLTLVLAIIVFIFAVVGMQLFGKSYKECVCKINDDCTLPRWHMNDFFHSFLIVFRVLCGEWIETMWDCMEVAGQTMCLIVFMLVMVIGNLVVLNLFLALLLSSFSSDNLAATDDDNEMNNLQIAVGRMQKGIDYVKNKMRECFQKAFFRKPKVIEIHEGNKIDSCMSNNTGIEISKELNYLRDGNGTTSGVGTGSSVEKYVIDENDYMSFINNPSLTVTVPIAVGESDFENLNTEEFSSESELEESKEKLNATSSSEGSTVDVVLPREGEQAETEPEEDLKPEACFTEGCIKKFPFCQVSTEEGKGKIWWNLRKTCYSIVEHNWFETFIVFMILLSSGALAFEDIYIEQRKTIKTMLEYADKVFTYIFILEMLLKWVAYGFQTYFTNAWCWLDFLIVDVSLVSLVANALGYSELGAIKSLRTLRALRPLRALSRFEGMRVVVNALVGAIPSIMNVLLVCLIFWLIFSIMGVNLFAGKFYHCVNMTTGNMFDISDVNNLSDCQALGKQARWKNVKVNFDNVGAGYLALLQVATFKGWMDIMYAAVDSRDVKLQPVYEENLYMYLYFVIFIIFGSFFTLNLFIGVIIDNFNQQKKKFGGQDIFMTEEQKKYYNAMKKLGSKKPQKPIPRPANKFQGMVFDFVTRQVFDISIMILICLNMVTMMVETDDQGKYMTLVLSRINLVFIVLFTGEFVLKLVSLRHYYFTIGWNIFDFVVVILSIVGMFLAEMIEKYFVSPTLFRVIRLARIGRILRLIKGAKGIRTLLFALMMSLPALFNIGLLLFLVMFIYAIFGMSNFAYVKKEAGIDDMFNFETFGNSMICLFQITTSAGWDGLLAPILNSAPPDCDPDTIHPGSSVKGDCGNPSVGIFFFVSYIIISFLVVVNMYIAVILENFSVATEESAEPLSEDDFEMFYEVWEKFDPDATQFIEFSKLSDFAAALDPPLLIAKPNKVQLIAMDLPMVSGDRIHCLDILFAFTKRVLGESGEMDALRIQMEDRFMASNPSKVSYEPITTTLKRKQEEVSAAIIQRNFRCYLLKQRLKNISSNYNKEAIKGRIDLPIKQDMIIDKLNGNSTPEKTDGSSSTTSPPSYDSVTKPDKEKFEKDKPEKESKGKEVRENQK
pIC50: −log10 of the molar value.
# pIC50 per record follows

| Test Smiles | Qualifier | pIC50 |
| --- | --- | --- |
| O=C(NCc1ccc(OC(F)(F)F)c(Cl)c1)c1ccc(S(=O)(=O)Nc2ncc(F)cn2)c(F)c1 | = | 6.00 |
| O=C(NCc1ccc(OC(F)(F)F)c(Cl)c1)c1ccc(S(=O)(=O)Nc2cncnc2)c(F)c1 | < | 5.52 |
| O=C(NCc1ccc(OC(F)(F)F)cc1)c1ccc(S(=O)(=O)Nc2nccs2)cc1 | = | 6.71 |
| O=S(=O)(Nc1nccs1)c1ccc(S(=O)(=O)N2CCC[C@@H]2CNc2ncnc3[nH]ccc23)cc1F | < | 5.52 |
| O=C(COc1ccc(F)cc1)N1CCc2cc(S(=O)(=O)Nc3ncns3)ccc21 | = | 5.90 |
